Hey, just so you know, these numbers are from PubChem BioAssay (NCI).

# Test system: 786-0 renal
# method: NCI-60 one-dose screen, 48 h (100 = growth as untreated, 0 = no growth, -100 = all killed)
# conditionSummary: 10 µM unless noted
About 83,000 compounds went through this panel and 20% of them were active in at least one assay; those are over-represented in the sample as a whole. The source made the active and inactive calls. Rule for the calls: active = growth percent below 10; inactive = the rest.
Record form. Attribute: growth. Fill in for each entry.

>>> testvalue("COc1cc(OC)cc(C(=O)Nc2cccc(C#Cc3cccc4[nH]nc(N)c34)c2)c1")
"46.5% (inactive)"

For each of the compounds below, state growth.
1. CCOC(=O)c1c(NC(=O)c2ccccc2C(F)(F)F)sc2c1CCC(=O)C2
2. Cc1nc(-c2ccccc2O)ccc1C(=O)N=Nc1c(O)[nH]c2ccc(Br)cc12

104% (inactive)
102% (inactive)

For each of the compounds below, state growth.
1. O=C(NNc1nc2cc(F)ccc2n2c(CN3CC4CNCC4C3)ccc12)c1cnccn1 (stereo not given)
2. CCN1CCN(Cc2cn(-c3ccc(S(N)(=O)=O)cc3)nn2)CC1

16.3% (inactive)
102% (inactive)
